Cited source for all entries: patent US9423396B2

Assay Comment: Spectroscopic measurements (absorption, emission, quantum yield, extinction coefficient)
Assay type: physicochemical
Run Parameters: BDNCA library, difference emission minus absorption
Measurement Kind: Flu-Abs
Respond with the number and no other words.

INPUT: Check the records and state Flu-Abs for CC1=CC(/C=C/c2ccccc2C)=[N+]2C1=C(c1ccc(NC(=O)CCl)cc1)c1cccn1[B-]2(F)F
OUTPUT: 22

INPUT: Check the records and state Flu-Abs for CC1=CC(/C=C/c2ccc(Oc3ccccc3)cc2)=[N+]2C1=C(c1ccc(NC(=O)CCl)cc1)c1cccn1[B-]2(F)F
OUTPUT: 27

INPUT: Check the records and state Flu-Abs for CC1=CC(/C=C/c2ccc(OC(C)(C)C)cc2)=[N+]2C1=C(c1ccc(NC(=O)CCl)cc1)c1cccn1[B-]2(F)F
OUTPUT: 38

INPUT: Check the records and state Flu-Abs for CC1=CC(/C=C/c2ccc(OCc3ccccc3)c(OCc3ccccc3)c2)=[N+]2C1=C(c1ccc(NC(=O)CCl)cc1)c1cccn1[B-]2(F)F
OUTPUT: 41

* * *

Assay Comment: Spectroscopic measurements (absorption, emission, quantum yield, extinction coefficient)
Assay type: physicochemical
Run Parameters: BDNCA library
Answer each item with its documented Qunt. Yield.

INPUT: Check the records and state Qunt. Yield for COc1ccc(Br)cc1/C=C/c1cc(C)c2n1[B-](F)(F)[N+]1=CC=CC1=C2c1ccc(NC(=O)CCl)cc1
OUTPUT: 0.07

INPUT: Check the records and state Qunt. Yield for Cc1cccc(/C=C/c2cc(C)c3n2[B-](F)(F)[N+]2=CC=CC2=C3c2ccc(NC(=O)CCl)cc2)c1
OUTPUT: 0.10

INPUT: Check the records and state Qunt. Yield for COc1cc(/C=C/C2=[N+]3C(=C(c4ccc(NC(=O)CCl)cc4)c4cccn4[B-]3(F)F)C(C)=C2)ccc1OCCBr
OUTPUT: 0.12

INPUT: Check the records and state Qunt. Yield for CC1=CC(/C=C/c2cccc(O)c2Cl)=[N+]2C1=C(c1ccc(NC(=O)CCl)cc1)c1cccn1[B-]2(F)F
OUTPUT: 0.05

* * *

Assay Comment: Spectroscopic measurements (absorption, emission, quantum yield, extinction coefficient)
Type: physicochemical
Run Parameters: BDNCA library, extinction coefficient; in M-1 cm-1 (unit assumed)
Measurement Kind: ε

INPUT: Check the records and state ε for CC1=CC(/C=C/c2cc(Cl)ccc2O)=[N+]2C1=C(c1ccc(NC(=O)CCl)cc1)c1cccn1[B-]2(F)F
OUTPUT: 39,817

INPUT: Check the records and state ε for CC1=CC(/C=C/c2ccc(Oc3cccc(Cl)c3)cc2)=[N+]2C1=C(c1ccc(NC(=O)CCl)cc1)c1cccn1[B-]2(F)F
OUTPUT: 65,629

INPUT: Check the records and state ε for Cc1cccc(/C=C/c2cc(C)c3n2[B-](F)(F)[N+]2=CC=CC2=C3c2ccc(NC(=O)CCl)cc2)c1
OUTPUT: 47,780

INPUT: Check the records and state ε for COc1ccc(Oc2ccc(/C=C/c3cc(C)c4n3[B-](F)(F)[N+]3=CC=CC3=C4c3ccc(NC(=O)CCl)cc3)cc2)cc1
OUTPUT: 61,785

INPUT: Check the records and state ε for CC1=CC(/C=C/c2[nH]cnc2C)=[N+]2C1=C(c1ccc(NC(=O)CCl)cc1)c1cccn1[B-]2(F)F
OUTPUT: 12,082

INPUT: Check the records and state ε for CC1=CC(/C=C/c2ccc(N(c3ccccc3)c3ccccc3)cc2)=[N+]2C1=C(c1ccc(NC(=O)CCl)cc1)c1cccn1[B-]2(F)F
OUTPUT: 35,149

INPUT: Check the records and state ε for CC1=CC(/C=C/c2ccc(Oc3ccccc3)cc2)=[N+]2C1=C(c1ccc(NC(=O)CCl)cc1)c1cccn1[B-]2(F)F
OUTPUT: 89,245

* * *

Assay Comment: Spectroscopic measurements (absorption, emission, quantum yield, extinction coefficient)
Assay type: physicochemical
Run Parameters: BDNCA library, extinction coefficient; in M-1 cm-1 (unit assumed)
Answer each item with its documented ε.

INPUT: Check the records and state ε for CCOc1ccc(/C=C/C2=[N+]3C(=C(c4ccc(NC(=O)CCl)cc4)c4cccn4[B-]3(F)F)C(C)=C2)cc1OC
OUTPUT: 35,149

INPUT: Check the records and state ε for CCc1ccc(/C=C/C2=[N+]3C(=C(c4ccc(NC(=O)CCl)cc4)c4cccn4[B-]3(F)F)C(C)=C2)cc1[N+](=O)[O-]
OUTPUT: 57,666

INPUT: Check the records and state ε for CCOc1ccc(/C=C/C2=[N+]3C(=C(c4ccc(NC(=O)CCl)cc4)c4cccn4[B-]3(F)F)C(C)=C2)cc1OCC
OUTPUT: 31,579

INPUT: Check the records and state ε for COc1ccc2c(OC)ccc(/C=C/C3=[N+]4C(=C(c5ccc(NC(=O)CCl)cc5)c5cccn5[B-]4(F)F)C(C)=C3)c2c1
OUTPUT: 29,931

INPUT: Check the records and state ε for CC1=CC(/C=C/c2ccc(OCCCN(C)C)cc2)=[N+]2C1=C(c1ccc(NC(=O)CCl)cc1)c1cccn1[B-]2(F)F
OUTPUT: 24,165

INPUT: Check the records and state ε for COc1ccc(/C=C/c2cc(C)c3n2[B-](F)(F)[N+]2=CC=CC2=C3c2ccc(NC(=O)CCl)cc2)c2ccccc12
OUTPUT: 27,735

INPUT: Check the records and state ε for CC1=CC(/C=C/c2cccc(I)c2)=[N+]2C1=C(c1ccc(NC(=O)CCl)cc1)c1cccn1[B-]2(F)F
OUTPUT: 70,847

* * *

Assay Comment: Spectroscopic measurements (absorption, emission, quantum yield, extinction coefficient)
Assay type: physicochemical
Run Parameters: BDNCA library
For each record, check the reported Qunt. Yield: if it is below 0.09 write TRUE, else write FALSE.

INPUT: Given the entry CC1=CC(/C=C/c2ccccc2C)=[N+]2C1=C(c1ccc(NC(=O)CCl)cc1)c1cccn1[B-]2(F)F , would its reported Qunt. Yield be below 0.09?
OUTPUT: FALSE

INPUT: Given the entry CC1=CC(/C=C/c2ccoc2)=[N+]2C1=C(c1ccc(NC(=O)CCl)cc1)c1cccn1[B-]2(F)F , would its reported Qunt. Yield be below 0.09?
OUTPUT: TRUE

INPUT: Given the entry CC1=CC(/C=C/c2ccc(OCCCN(C)C)cc2)=[N+]2C1=C(c1ccc(NC(=O)CCl)cc1)c1cccn1[B-]2(F)F , would its reported Qunt. Yield be below 0.09?
OUTPUT: TRUE

INPUT: Given the entry COc1cc(Cl)cc(/C=C/C2=[N+]3C(=C(c4ccc(NC(=O)CCl)cc4)c4cccn4[B-]3(F)F)C(C)=C2)c1O , would its reported Qunt. Yield be below 0.09?
OUTPUT: TRUE

INPUT: Given the entry COc1ccc(/C=C/C2=[N+]3C(=C(c4ccc(NC(=O)CCl)cc4)c4cccn4[B-]3(F)F)C(C)=C2)cc1O , would its reported Qunt. Yield be below 0.09?
OUTPUT: TRUE

INPUT: Given the entry CCc1ccccc1/C=C/c1cc(C)c2n1[B-](F)(F)[N+]1=CC=CC1=C2c1ccc(NC(=O)CCl)cc1 , would its reported Qunt. Yield be below 0.09?
OUTPUT: FALSE

INPUT: Given the entry COc1ccc(Oc2cccc(/C=C/C3=[N+]4C(=C(c5ccc(NC(=O)CCl)cc5)c5cccn5[B-]4(F)F)C(C)=C3)c2)cc1 , would its reported Qunt. Yield be below 0.09?
OUTPUT: TRUE

INPUT: Given the entry CCCCOc1ccc(/C=C/C2=[N+]3C(=C(c4ccc(NC(=O)CCl)cc4)c4cccn4[B-]3(F)F)C(C)=C2)cc1 , would its reported Qunt. Yield be below 0.09?
OUTPUT: FALSE

* * *

Assay Comment: Spectroscopic measurements (absorption, emission, quantum yield, extinction coefficient)
Type: physicochemical
Run Parameters: quantum yield, BDNCA library
Output MET for Qunt. Yield not less than 0.05; output NOT MET otherwise.

INPUT: Does Qunt. Yield meet or surpass 0.05 for CC1=CC(/C=C/C2CCCCC2)=[N+]2C1=C(c1ccc(NC(=O)CCl)cc1)c1cccn1[B-]2(F)F ?
OUTPUT: MET

INPUT: Does Qunt. Yield meet or surpass 0.05 for CC1=CC(/C=C/c2ccc(-c3ccc(Br)cc3)o2)=[N+]2C1=C(c1ccc(NC(=O)CCl)cc1)c1cccn1[B-]2(F)F ?
OUTPUT: NOT MET

INPUT: Does Qunt. Yield meet or surpass 0.05 for CC1=CC(/C=C/c2cccc(B(O)O)c2)=[N+]2C1=C(c1ccc(NC(=O)CCl)cc1)c1cccn1[B-]2(F)F ?
OUTPUT: NOT MET

INPUT: Does Qunt. Yield meet or surpass 0.05 for Cc1cc(/C=C/c2ccc(F)c(Oc3ccccc3)c2)n2c1C(c1ccc(NC(=O)CCl)cc1)=C1C=CC=[N+]1[B-]2(F)F ?
OUTPUT: MET

INPUT: Does Qunt. Yield meet or surpass 0.05 for CC1=CC(/C=C/c2ccccc2I)=[N+]2C1=C(c1ccc(NC(=O)CCl)cc1)c1cccn1[B-]2(F)F ?
OUTPUT: MET
